Catalogue of IC50 KA values
- targetOrTestSystem: native KA receptors
- protocolDetails: Binding affinity at native KA receptors, [3H]-KA, rat cortical synaptosomes
- testConditions: native iGluRs, mean of at least three experiments
recordedEndpoint: IC50 KA

COC(C(=O)O)[C@@H]1CCN[C@H]1C(=O)O.Cl (relative stereo) [3j-d1]: >100 µM
Cl.O=C(O)C(Cc1c[nH]nn1)[C@@H]1CCN[C@H]1C(=O)O (some centres unmarked) [3p-d2]: 58 µM
CC(C)C(C(=O)O)[C@@H]1CCN[C@H]1C(=O)O.Cl (relative stereo) [3f]: >100 µM
Cl.O=C(O)CCC(C(=O)O)[C@@H]1CCN[C@H]1C(=O)O (relative stereo) [3m]: >100 µM
Cl.O=C(O)C(CCCO)[C@@H]1CCN[C@H]1C(=O)O (relative stereo) [3o]: >100 µM
